molecular target: Acetylcholinesterase (Electrophorus electricus)
Sequence (O42275 whole entry): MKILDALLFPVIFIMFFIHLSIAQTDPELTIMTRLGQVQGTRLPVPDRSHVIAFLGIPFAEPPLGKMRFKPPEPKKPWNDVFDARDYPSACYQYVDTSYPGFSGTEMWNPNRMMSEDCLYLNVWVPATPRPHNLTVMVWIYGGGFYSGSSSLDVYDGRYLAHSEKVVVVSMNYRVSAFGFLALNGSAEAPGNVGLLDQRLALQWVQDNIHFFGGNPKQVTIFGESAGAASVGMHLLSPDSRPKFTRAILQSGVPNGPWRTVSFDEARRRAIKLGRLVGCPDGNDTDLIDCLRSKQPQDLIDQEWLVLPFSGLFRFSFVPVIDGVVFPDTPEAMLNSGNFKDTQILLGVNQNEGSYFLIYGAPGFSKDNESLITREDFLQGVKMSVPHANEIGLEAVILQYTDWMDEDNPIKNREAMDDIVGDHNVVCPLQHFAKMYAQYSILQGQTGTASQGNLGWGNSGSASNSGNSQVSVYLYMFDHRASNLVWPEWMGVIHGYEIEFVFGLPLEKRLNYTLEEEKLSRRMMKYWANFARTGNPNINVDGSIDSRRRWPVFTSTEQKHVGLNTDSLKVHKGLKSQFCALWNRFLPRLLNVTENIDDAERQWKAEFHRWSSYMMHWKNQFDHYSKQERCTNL
Consider the following molecules; for each one, report its IC50.

Below are some molecules; for each one, tell me its IC50.
1. CN(C)CCc1c(C(c2c[nH]c3ccccc23)C(O)CO)[nH]c2ccc(O)cc12 (stereo not given)
2. CN(C)CCc1c[nH]c2ccc(O)cc12 [BUFOTENINE]

["11.7 µM", "11.4 µM"]

List reported IC50 for each of these molecules:
1. NCCc1c(C(c2c[nH]c3ccccc23)C(O)CO)[nH]c2ccc(O)cc12 (stereo not given)
2. CNCCc1c[nH]c2ccc(OC)cc12
3. COc1ccc2[nH]cc(CCN(C)C)c2c1 [MEBUFOTENIN]

1. 12.7 µM
2. 12.5 µM
3. 14 µM
